The origin of these recorded values is paper PMC3064895.

- assay: Plasma pharmacokinetics at steady state of sorafenib
- Type: in vivo, patients with advanced cancer
- assay_setup: plasma; Day 1 of cycle 2; sorafenib 400 mg bid
measure_name: C trough, geometric mean (% CV)

{"columns": ["chemical_smiles", "C trough, geometric mean (% CV)"],
 "data": [
  ["NC(=O)c1cc(Oc2ccc(NC(=O)Nc3ccc(Cl)c(C(F)(F)F)c3)cc2)ccn1", "0.2 (82.3) mg/L"],
  ["CNC(=O)c1cc(Oc2ccc(NC(=O)Nc3ccc(Cl)c(C(F)(F)F)c3)cc2)cc[n+]1[O-]", "0.8 (81.1) mg/L"],
  ["CNC(=O)c1cc(Oc2ccc(NC(=O)Nc3ccc(Cl)c(C(F)(F)F)c3)cc2)ccn1", "4.1 (73.6) mg/L"]
]}

stdin: Sample NC(=O)c1cc(Oc2ccc(NC(=O)Nc3ccc(Cl)c(C(F)(F)F)c3)cc2)cc[n+]1[O-] — what was its C trough, geometric mean (% CV)?
stdout: 0.3 (114.5) mg/L

###

- assay: Plasma pharmacokinetics at steady state of sorafenib
- Assay type: in vivo, patients with advanced cancer
- assay_setup: plasma; Day 1 of cycle 5; sorafenib 400 mg bid
measure_name: t max, median (range)

{"columns": ["molecule", "measured_value"],
 "data": [
  ["CNC(=O)c1cc(Oc2ccc(NC(=O)Nc3ccc(Cl)c(C(F)(F)F)c3)cc2)ccn1 [sorafenib]", "2.00 (0–8.05) h"],
  ["NC(=O)c1cc(Oc2ccc(NC(=O)Nc3ccc(Cl)c(C(F)(F)F)c3)cc2)cc[n+]1[O-] [BAY 68-7769]", "2.00 (0–8.05) h"],
  ["NC(=O)c1cc(Oc2ccc(NC(=O)Nc3ccc(Cl)c(C(F)(F)F)c3)cc2)ccn1 [BAY 43-9007]", "2.00 (0–12.00) h"]
]}

Please turn your attention to the following entry.
stdin: Quick one: t max, median (range) of CNC(=O)c1cc(Oc2ccc(NC(=O)Nc3ccc(Cl)c(C(F)(F)F)c3)cc2)cc[n+]1[O-] [BAY 67-3472] ?
stdout: 2.00 (0–8.12) h

###

- assay: Plasma pharmacokinetics at steady state of sorafenib
- Type: in vivo, patients with advanced cancer
- assay_setup: human, plasma, oral, 400 mg
measure_name: Tmax (h)
Give your result in h as a bare value.

stdin: Bench note: what Tmax did CNC(=O)c1cc(Oc2ccc(NC(=O)Nc3ccc(Cl)c(C(F)(F)F)c3)cc2)ccn1 [sorafenib] show?
stdout: 2

###

- assay: Plasma pharmacokinetics at steady state of sorafenib
- Type: in vivo, patients with advanced cancer
- assay_setup: human, plasma, oral, 400 mg, C max, geometric mean (% CV), plasma; Day 1 of cycle 5; sorafenib 400 mg bid
measure_name: Cmax (ng/mL)
Numbers only; they are read as ng/mL.

stdin: Data request, read-out Cmax, for CNC(=O)c1cc(Oc2ccc(NC(=O)Nc3ccc(Cl)c(C(F)(F)F)c3)cc2)ccn1
stdout: 4300

###

- assay: Plasma pharmacokinetics at steady state of sorafenib
- Format: in vivo, patients with advanced cancer
- assay_setup: plasma; Day 1 of cycle 5; sorafenib 400 mg bid
Listed here: items and their measured C max,norm, geometric mean (% CV).

Example entries and their recorded answers appear below.
{"columns": ["chemical_smiles", "C max,norm, geometric mean (% CV)"],
 "data": [
  ["CNC(=O)c1cc(Oc2ccc(NC(=O)Nc3ccc(Cl)c(C(F)(F)F)c3)cc2)cc[n+]1[O-]", "0.1 (100.7) kg/L"],
  ["NC(=O)c1cc(Oc2ccc(NC(=O)Nc3ccc(Cl)c(C(F)(F)F)c3)cc2)cc[n+]1[O-]", "<0.1 (123.6) kg/L"],
  ["NC(=O)c1cc(Oc2ccc(NC(=O)Nc3ccc(Cl)c(C(F)(F)F)c3)cc2)ccn1", "<0.1 (78.2) kg/L"]
]}

Here's the next entry for you.
stdin: Can you share its C max,norm, geometric mean (% CV)? I mean this compound: CNC(=O)c1cc(Oc2ccc(NC(=O)Nc3ccc(Cl)c(C(F)(F)F)c3)cc2)ccn1
stdout: 0.8 (72.5) kg/L
